// reported Minimum inhibitory concentration, S. aureus ATCC 29213 per item
# Test system: S. aureus ATCC 29213
# procedure_summary: Antibacterial susceptibility (MIC), NCCLS broth microdilution
# Format: cell-based
# test_parameters: CAMHB, 37° C., 18 h
// return numeric value only (unit: µg/mL, not printed)

Would you please look over these solved cases?
compound: CCCC(=O)OCCN(CCCCC(P(=O)(O)O)P(=O)(O)O)CC(=O)O[C@@H]1[C@@H](C)[C@@H](O)[C@@H](C)[C@H](OC(C)=O)[C@H](C)[C@@H](OC)/C=C/O[C@@]2(C)Oc3c(C)c(O)c4c(c3C2=O)C2=NC3(CCN(CC(C)C)CC3)NC2=C(NC(=O)/C(C)=C\C=C\[C@@H]1C)C4=O [Compound 48a]
unit_descriptor: µg/mL
data_value: 2
//
compound: CO[C@H]1/C=C/O[C@@]2(C)Oc3c(C)c(O)c4c(c3C2=O)C2=NC3(CCN(CC(C)C)CC3)NC2=C(NC(=O)/C(C)=C\C=C\[C@H](C)[C@H](OC(=O)CN(C)CCOC(=O)CCC(P(=O)(O)O)P(=O)(O)O)[C@@H](C)[C@@H](O)[C@@H](C)[C@H](OC(C)=O)[C@@H]1C)C4=O [Compound 36]
unit_descriptor: µg/mL
data_value: 2

Minimum inhibitory concentration, S. aureus ATCC 29213 reported for this compound CO[C@H]1/C=C/O[C@@]2(C)Oc3c(C)c(O)c4c(c3C2=O)C2=NC3(CCN(CC(C)C)CC3)NC2=C(NC(=O)/C(C)=C\C=C\[C@H](C)[C@H](OC(=O)CN(C)C(=O)NC(P(=O)(O)O)P(=O)(O)O)[C@@H](C)[C@@H](O)[C@@H](C)[C@H](OC(C)=O)[C@@H]1C)C4=O [Compound 140] : 16

The value of Minimum inhibitory concentration, S. aureus ATCC 29213 measured for the compound CO[C@H]1/C=C/O[C@@]2(C)Oc3c(C)c(O)c4c(c3C2=O)C2=NC3(CCN(CC(C)C)CC3)NC2=C(NC(=O)/C(C)=C\C=C\[C@H](C)[C@H](OC(=O)CN(C)CCOC(=O)CNC(=O)CCC(P(=O)(O)O)P(=O)(O)O)[C@@H](C)[C@@H](O)[C@@H](C)[C@H](OC(C)=O)[C@@H]1C)C4=O [Compound 42] turned out to be 0.25

// sample CO[C@H]1/C=C/O[C@@]2(C)Oc3c(C)c(O)c4c(c3C2=O)C2=NC3(CCN(CC(C)C)CC3)NC2=C(NC(=O)/C(C)=C\C=C\[C@H](C)[C@H](OC(=O)CNC(=O)CCCNC(=O)NC(P(=O)(O)O)P(=O)(O)O)[C@@H](C)[C@@H](O)[C@@H](C)[C@H](OC(C)=O)[C@@H]1C)C4=O.N.N [Compound 155] , its Minimum inhibitory concentration, S. aureus ATCC 29213 was 128

Looking up CO[C@H]1/C=C/O[C@@]2(C)Oc3c(C)c(O)c4c(c3C2=O)C2=NC3(CCN(CC(C)C)CC3)NC2=C(NC(=O)/C(C)=C\C=C\[C@H](C)[C@H](OC(=O)CN(C)CC(=O)Nc2ccc(CC(P(=O)(O)O)P(=O)(O)O)cc2)[C@@H](C)[C@@H](O)[C@@H](C)[C@H](OC(C)=O)[C@@H]1C)C4=O [Compound 150] , I see its Minimum inhibitory concentration, S. aureus ATCC 29213 listed as 64
